meta.source: the Human Domainome abundance scans (Beltran et al. 2025)

B1: Membrane-associated guanylate kinase, WW and PDZ domain-containing protein 2, residues 296 to 340; numbered along this chain, Q86UL8 (parent)
chain: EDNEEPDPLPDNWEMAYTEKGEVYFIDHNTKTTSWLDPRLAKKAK

- Variants of: B1
- assay.protocol: abundance fitness (aPCA) (normalised: wild type 0, dead -1); higher = more abundant; growth selection in yeast, the domain comes from the species named
- test.conditions: Homo sapiens
property: abundance fitness
Reply with just the number.

Would you kindly share the measured abundance fitness for `M15R` ?
-0.106

Could you share which abundance fitness value was measured for `E22Y` ?
-0.404

// lookup abundance fitness for `M15H`
-0.428

Requested read-out: abundance fitness. Entry: `K45E`
-0.022

# get_value(readout='abundance fitness', item= `L36D` )
-0.227

// query abundance fitness value for entry `K43L`
-0.113

Would you kindly share the measured abundance fitness for `Y24N` ?
-1.08

Fill in: abundance fitness of `A16I` is ___
-0.529

Dear colleague, I am looking for the recorded abundance fitness of the following variant: `D11T`
0.042

# input variant: `N3S` ; wanted: its abundance fitness
0.021

What measured abundance fitness goes with `P10G` ?
-0.436

If you can, please state the reported abundance fitness value of `Y24G` .
-0.816

Find the recorded abundance fitness belonging to `P8I` and report it.
-0.156

Looking for the measured abundance fitness of `R39S` , can you help?
-0.395

Sample `D37M` — what was its abundance fitness?
-0.533

I have this variant here, `V23P` , and I need its recorded abundance fitness.
-0.038

GET /values?readout=abundance fitness&item= `P10E`
-0.376

Given the variant `H28R` , what is its reported abundance fitness?
-0.243

Query (variant): `M15V` ; field requested: abundance fitness
-0.121

Look up abundance fitness for this variant: `K42T`
-0.148

Give its abundance fitness value. Item: `D11V`
-0.064

Requested read-out: abundance fitness. Entry: `P8E`
-0.069
